Compiled literature Ki, tested on UniProtKB P19327.
One number for each entry, in nM.

In the examples that follow, each entry is paired with its recorded Ki.
### Prompt What Ki value was documented for this molecule, CCOc1ccccc1N1CCN(C(=O)CCCn2nc(-n3ccnc3)ccc2=O)CC1 ?
### Response 2250

### Prompt Which measured Ki value corresponds to O=C(N[C@@H]1CCN(CCc2ccc(F)cc2)C1)C12CC3CC(CC(C3)C1)C2 ?
### Response 0.53

### Prompt Consider the molecule shown here: COc1ccccc1N1CCN(CCNC(=O)C2CCCC2)CC1 What is its recorded Ki?
### Response 4.68

### Prompt I would be grateful if you could share the reported Ki for COc1cccc(OC)c1OCCNC[C@H]1Oc2ccccc2O[C@@H]1c1ccc(C)cc1 .
### Response 1260

### Prompt # Ki lookup, item CC(C)C(=O)Nc1cccc(N2CCN(CCCCN3CC(=O)N4CCCCC4C3=O)CC2)c1 (configuration not stated)
### Response 198

### Prompt I have this molecule here, O=S(=O)(NCCCCN1CCc2sccc2C1)c1cnc2ccccc2c1 , and I need its recorded Ki.
### Response 986

### Prompt Give the measured Ki of COc1ccccc1N1CCN(C(=O)CCCn2nc(-n3ccnc3)ccc2=O)CC1 .
### Response 318

### Prompt Data request, read-out Ki, for COC(=O)c1cccc(C)c1-n1ccc(CN2CCN(c3ccccc3OC)CC2)c1
### Response 18.5

Please look at the items below and tell me Ki for each one, in order.
1. CCN(CC)c1nc(CNCC2(F)CCN(C(=O)c3ccc(F)c(Cl)c3)CC2)ccc1C
2. O=c1c2cnc3ccccc3c2ncn1CCCN1CCN(c2ccccc2Cl)CC1
3. O=C(c1cccc(CN2CCC(c3ccc(Cl)cc3)C2)c1)N1CCCCC1 (configuration not stated)
4. CCCN(CCCCCCN1C(=O)CC2(CCCC2)CC1=O)C1COc2cccc(OC)c2C1 (configuration not stated)
5. COc1cccc(N2CCN(CCCn3cnc4c(cnc5ccccc54)c3=O)CC2)c1
6. COc1ccccc1N1CCN(CCCCc2ccccc2)CC1

### Response
1: 1.38; 2: 93; 3: 15.3; 4: 0.501; 5: 120; 6: 1

Hi team, please reply with Ki for each item in this list.
1. COc1ccccc1N1CCN(CCCCN2C(=O)C[C@H](NC(=O)CC3CC4CCC3C4)C2=O)CC1 (some centres not stated)
2. CN1CCc2ccc(OCC(F)CN3CCC(c4noc5cc(F)ccc45)CC3)cc2C1=O (configuration not stated)

### Response
1: 9; 2: 68.2

---

Record: compiled Ki on UniProt:P19327 from multiple reports.
# system-tested: UniProt:P19327
# Sequence (P19327 whole entry): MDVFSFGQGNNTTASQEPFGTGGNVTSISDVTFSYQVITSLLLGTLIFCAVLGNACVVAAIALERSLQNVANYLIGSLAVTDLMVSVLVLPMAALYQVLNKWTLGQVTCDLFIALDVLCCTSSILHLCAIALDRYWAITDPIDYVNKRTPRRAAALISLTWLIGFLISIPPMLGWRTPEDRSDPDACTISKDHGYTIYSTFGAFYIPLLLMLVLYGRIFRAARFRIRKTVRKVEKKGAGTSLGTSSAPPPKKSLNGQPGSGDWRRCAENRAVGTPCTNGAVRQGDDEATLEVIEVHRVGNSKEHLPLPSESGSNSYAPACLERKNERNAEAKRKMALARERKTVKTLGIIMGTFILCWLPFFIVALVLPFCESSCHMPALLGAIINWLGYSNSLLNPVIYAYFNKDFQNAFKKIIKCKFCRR
Kindly apply the following: 1 if Ki is less than 100 nM, 0 in every other case.

Please review the following examples before continuing.
### Prompt Lab note: confirm whether the reported Ki for this compound is below 100 nM, equality not counting. compound: CN1CCc2ccc3c4c2[C@H]1Cc1cccc(c1-4)C3=O
### Response 0

### Prompt Determine if Cc1cccc(N2CCN(CCCCOc3ccc4c(C)cc(=O)oc4c3)CC2)c1C shows Ki strictly lower than 100 nM.
### Response 1

### Prompt Given N#Cc1ccc(S(=O)(=O)N2CCC(CN3CCC(c4noc5cc(F)ccc45)CC3)CC2)cc1 , is recorded Ki strictly lower than 100 nM?
### Response 0

### Prompt is_below(Ki, 100 nM) for Cc1ccccc1-c1c(=O)n(CCCCN2CC=C(c3c[nH]c4ccc(Br)cc34)CC2)c(=O)n2ccccc12 ?
### Response 1

### Prompt Dear colleague, could you confirm whether Ki of CCCCC(=O)N(C)Cc1ccc(CN2CCN(c3ccccc3OC)CC2)n1C.O=C(O)CCC(=O)O falls below 100 nM? Thanks.
### Response 1

Continuing:
### Prompt Answer whether the compound CCCN(CCCCN1C(=O)CC2(CCCC2)CC1=O)[C@H]1CCc2c(F)ccc(C(C)=O)c2C1 has Ki strictly less than 100 nM
### Response 1

### Prompt Given the entry O=C(c1ccc(Cl)c(Cl)c1)N1CCC(CNCc2cccc(-c3nccs3)n2)CC1 , would its reported Ki be below 100 nM?
### Response 1

### Prompt Criterion: Ki strictly below 100 nM. Is it met by COc1ccccc1N1CCN(CCN2C(=O)CC(NC(C)=O)C2=O)CC1 (stereo not given) ?
### Response 0

### Prompt Ki strictly < 100 nM for this compound? Clc1ccc(-n2cc(COCCN3CCN(c4ccccc4)CC3)cn2)cc1
### Response 0

### Prompt Bench note: check whether O=C1[C@H]2CCCC[C@H]2C(=O)N1C1CCC(N2CCc3ccccc3C2)CC1 (stereo not given in full) shows Ki below 100 nM
### Response 0

### Prompt # strict comparison: is reported Ki < 100 nM? input = Fc1ccc2c(C3CCN(CCCCOc4ccc(-c5nc6ccccc6o5)cc4)CC3)noc2c1
### Response 0

### Prompt Ki strictly < 100 nM for this compound? N#Cc1ccc(CCCCNCCOc2cc(F)cc3c2OCCC3=O)cc1
### Response 1

### Prompt Field: below-cutoff. Rule: recorded Ki strictly less than 100 nM. Subject: O=C1CCOc2c(OCCNCCCCc3ccc4c(c3)CCO4)cc(F)cc21
### Response 1

### Prompt Determine whether this compound shows Ki lower than 100 nM (ties excluded): NCCCCN1CCN(c2ccccc2)CC1
### Response 0

### Prompt Record c1ccc(C2Oc3ccccc3OC2COCCCCN2CCC(c3nc4ccccc4s3)CC2)cc1 (stereo not given) : is its Ki strictly below 100 nM?
### Response 1

---

Collected from the literature: Ki of various molecules toward 5-hydroxytryptamine receptor 1A (Rattus norvegicus).
Give bare numbers, in µM.

### Prompt // map CCCN(CCCCN1C(=O)CC2(CCCC2)CC1=O)[C@H]1CCc2c(F)ccc(-c3ccco3)c2C1 to recorded Ki (system: 5-hydroxytryptamine receptor 1A (Rattus norvegicus))
### Response 0.0075

### Prompt # query: Ki | item Cc1ccc(-c2nn(CCCCCCCN3CCN(c4cccc(C(F)(F)F)c4)CC3)c(=O)c3ccccc23)cc1 | system: 5-hydroxytryptamine receptor 1A (Rattus norvegicus)
### Response 0.722

### Prompt Given the entry COc1ccccc1N1CCN(CCCOc2ccc(=O)n(-c3ccc(Cl)c(Cl)c3)n2)CC1 , what Ki was observed with 5-hydroxytryptamine receptor 1A (Rattus norvegicus)?
### Response 0.0562

### Prompt I'm curious: which Ki was measured for Fc1ccc(N2CCN(Cc3cn(-c4ccccc4)nn3)CC2)cc1 tested on 5-hydroxytryptamine receptor 1A (Rattus norvegicus)?
### Response 1.5

### Prompt Kindly state the measured Ki obtained for COc1ccc2c(c1OCCNC[C@H]1COc3ccccc3O1)OCC2.Cl with 5-hydroxytryptamine receptor 1A (Rattus norvegicus).
### Response 0.0468

Quick request: Ki for each listed item, please.
1. CC(C)Oc1ccccc1OCCNCc1cccc(C2=CCCC2)c1
2. COc1ccccc1N1CCN(CCCCOc2cc3oc(=O)c4c(c3cc2Cl)CCC4)CC1

### Response
1. 0.0295
2. 0.0848

I need Ki for every entry listed below, if you could help.
1. COc1cccc2c(CCCNCCOc3ccccn3)cccc12
2. CC(C)Oc1ccccc1N1CCN(CCCCn2nc(-n3ccc4ccccc43)ccc2=O)CC1
3. O=C(c1ccc(Cl)c(Cl)c1)N1CCC(F)(CNCc2cccc(N3CCC3)n2)CC1
4. COc1ccccc1N1CCN(Cc2cn(-c3ccccc3C(C)C)c3ccccc23)CC1
5. CCCN(CCC)C1COc2c(cccc2C(=O)c2ccc(C(C)=O)cc2)C1 (stereo not drawn)
6. O=C1CCC(=O)N1CCN1CCN(c2cccc(Cl)c2)CC1

### Response
1. 0.00019
2. 0.0228
3. 0.0002
4. 0.058
5. 0.011
6. 3.67

---

# system-tested: 5-hydroxytryptamine receptor 1A (Rattus norvegicus)
# Sequence (P19327 whole entry): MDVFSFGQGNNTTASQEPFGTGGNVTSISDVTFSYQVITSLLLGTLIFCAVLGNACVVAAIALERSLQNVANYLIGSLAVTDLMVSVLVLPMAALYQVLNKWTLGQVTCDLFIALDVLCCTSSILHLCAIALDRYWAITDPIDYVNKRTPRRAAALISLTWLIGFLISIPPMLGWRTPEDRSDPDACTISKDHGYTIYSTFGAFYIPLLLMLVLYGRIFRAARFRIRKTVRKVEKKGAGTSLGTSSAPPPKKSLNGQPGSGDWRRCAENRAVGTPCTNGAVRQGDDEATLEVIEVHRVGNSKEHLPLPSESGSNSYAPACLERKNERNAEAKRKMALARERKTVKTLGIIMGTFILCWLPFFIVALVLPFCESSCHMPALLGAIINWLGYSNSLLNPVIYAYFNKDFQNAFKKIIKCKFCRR
Here is a set of compounds with reported Ki for 5-hydroxytryptamine receptor 1A (Rattus norvegicus), compiled from the literature.
// NB: equality with 20 nM counts as label 0; only Ki strictly below is label 1

### Prompt # check: Ki < 20 nM for Cc1ccccc1CNc1cc2c(cc1O)C(c1ccccc1)CN(C)CC2 (racemic)
### Response label 0

### Prompt Does COc1ccc2[nH]cc(C3CCN(CCCCn4c(=O)c(-c5ccc(C)cc5)c5ccccn5c4=O)CC3)c2c1 have Ki strictly under 20 nM?
### Response label 0

### Prompt Find out if reported Ki for CN1CCc2ccc3c4c2[C@H]1Cc1cccc(c1-4)[C@]3(C)O is less than 20 nM
### Response label 0

### Prompt # strict comparison: is reported Ki < 20 nM? input = O=c1c(-c2ccccc2F)c2ccccn2c(=O)n1CCCCN1CCC(c2c[nH]c3ccccc23)CC1
### Response label 1

### Prompt Is 20 nM strictly greater than the compound's reported Ki? compound: COc1cc(-c2ccccc2)ccc1OCCNC[C@@H]1COc2ccccc2O1
### Response label 0

### Prompt Please let me know if O=C1C2C3C=CC(C3)C2C(=O)N1OCCCN1CCN(c2ncccn2)CC1 (centres undefined) shows Ki below 20 nM.
### Response label 0

### Prompt Given the entry O=C1c2c(c(Cl)nc3ccccc23)CN1CCCCCN1CCN(c2cccc(Cl)c2Cl)CC1 , would its reported Ki be below 20 nM?
### Response label 0

### Prompt Does the reported Ki of the following compound sit strictly below 20 nM? Fc1ccc(-c2cncc(CN3CCN(c4cccc5c4OCCO5)CC3)c2)cc1
### Response label 1
